# assay_overview: 96 h application of a TDS: bioavailability, blood levels of benzopyrone during application and after removal
# condition_details: human, in vivo, topical or ocular
measurement_label: bioavailability at 96 h (%)

>  <molecule>
O=c1ccc2ccccc2o1 [benzopyrone, 5,6-benzo-alpha-pyrone]

>  <measurement_label>
bioavailability at 96 h

>  <numeric_value>
70

$$$$

###

# assay_overview: GCP-complying pharmacokinetic study of TDS with 14 healthy volunteers
# Format: in vivo, human
# condition_details: human, blood, topical or ocular; 4 h after removal of the TDS (200 mg)
measurement_label: concentration at 4 h

>  <smiles_entry>
O=c1ccc2ccccc2o1

>  <result>
4.96 ng/mL

$$$$
